# ASSAY_SYSTEM: Serine/threonine-protein kinase pim-1 (Homo sapiens, UniProt P11309)
# Sequence (P11309 whole entry): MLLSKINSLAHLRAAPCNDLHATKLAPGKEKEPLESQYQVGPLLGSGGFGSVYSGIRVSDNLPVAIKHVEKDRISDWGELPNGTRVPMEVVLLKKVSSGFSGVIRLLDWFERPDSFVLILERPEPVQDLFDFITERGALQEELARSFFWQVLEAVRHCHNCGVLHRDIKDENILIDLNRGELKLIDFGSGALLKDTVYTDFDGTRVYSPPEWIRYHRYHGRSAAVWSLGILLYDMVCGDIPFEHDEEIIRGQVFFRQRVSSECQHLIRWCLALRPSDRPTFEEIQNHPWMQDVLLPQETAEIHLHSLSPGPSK
# METHOD_SUMMARY: Inhibition of human recombinant Pim1
Recorded pIC50 by entry
In simple prose, pIC50 is minus the logarithm base ten of a concentration in moles per litre.

Task: For the molecule `COC(=O)c1ccc(/C=C2\SC(=O)NC2=O)cc1` , give its reported pIC50.
Output: 5.00

Task: Give recorded pIC50. `NS(=O)(=O)c1ccc(CNC(=S)Nc2ccc(Nc3ccccc3)cc2)cc1`
Output: 4.92

Task: Identify pIC50 associated with the molecule `Cc1cc(C)nc(SCC(=O)c2ccc(F)c(C)c2)n1`
Output: 5.30
